Number of the subjected showing response, 24 hours later, − (No visible response): recorded values
Test system: healthy females and males
Assay: Human patch test
Assay type: in vivo
Details: 1% in patch base, n = 30, 24 hours later, grade 0
PROPERTY NAME: Number of the subjected showing response, 24 hours later, − (No visible response)

[
  {
    "SMILES REPRESENTATION": "O=C(/C=C/c1ccc2c(c1)OCCO2)COc1cc(=O)c(O)co1",
    "OBSERVED RESULT": 29
  },
  {
    "SMILES REPRESENTATION": "O=c1cc(/C=C/c2ccc3c(c2)OCO3)occ1O",
    "OBSERVED RESULT": 30
  },
  {
    "SMILES REPRESENTATION": "O=C(Oc1cc(=O)c(O)co1)c1ccc2c(c1)OCCO2",
    "OBSERVED RESULT": 30
  },
  {
    "SMILES REPRESENTATION": "O=c1cc(/C=C/c2ccc3c(c2)OCCO3)occ1O",
    "OBSERVED RESULT": 30
  },
  {
    "SMILES REPRESENTATION": "O=C(OCc1cc(=O)c(O)co1)c1ccc2c(c1)OCO2",
    "OBSERVED RESULT": 28
  }
]

----------
Test system: healthy females and males
Test: Human patch test
Format: in vivo
Details: 1% in patch base, n = 30, 48 hours later, grade 2
PROPERTY NAME: Number of the subjected showing response, 48 hours later, + (Intense erythema)

[
  {
    "SMILES REPRESENTATION": "O=C(Oc1cc(=O)c(O)co1)c1ccc2c(c1)OCCO2",
    "SYSTEM NAME": "healthy females and males",
    "OBSERVED RESULT": 0
  },
  {
    "SMILES REPRESENTATION": "O=c1cc(/C=C/c2ccc3c(c2)OCCO3)occ1O",
    "SYSTEM NAME": "healthy females and males",
    "OBSERVED RESULT": 0
  },
  {
    "SMILES REPRESENTATION": "O=c1cc(/C=C/c2ccc3c(c2)OCO3)occ1O",
    "SYSTEM NAME": "healthy females and males",
    "OBSERVED RESULT": 0
  },
  {
    "SMILES REPRESENTATION": "O=C(/C=C/c1ccc2c(c1)OCCO2)COc1cc(=O)c(O)co1",
    "SYSTEM NAME": "healthy females and males",
    "OBSERVED RESULT": 0
  },
  {
    "SMILES REPRESENTATION": "O=C(OCc1cc(=O)c(O)co1)c1ccc2c(c1)OCO2",
    "SYSTEM NAME": "healthy females and males",
    "OBSERVED RESULT": 0
  }
]

----------
System: Human fibroblasts
Experiment: Collagenase-inhibiting effect (collagenase expression, ELISA kit)
Format: cell-based
Settings: 10^-4 M, 24 hours, relative to untreated control group = 100
Expression of collagenase (%): recorded values

[
  {
    "COMPOUND": "O=c1cc(/C=C/c2ccc3c(c2)OCCO3)occ1O",
    "UNIT TEXT": "%",
    "Expression of collagenase (%)": 84
  },
  {
    "COMPOUND": "CC1=C(/C=C/C(C)=C/C=C/C(C)=C/C(=O)O)C(C)(C)CCC1 [Retinoic acid, reference compound]",
    "UNIT TEXT": "%",
    "Expression of collagenase (%)": 75
  },
  {
    "COMPOUND": "O=C(/C=C/c1ccc2c(c1)OCCO2)COc1cc(=O)c(O)co1",
    "UNIT TEXT": "%",
    "Expression of collagenase (%)": 77
  },
  {
    "COMPOUND": "O=C(Oc1cc(=O)c(O)co1)c1ccc2c(c1)OCCO2",
    "UNIT TEXT": "%",
    "Expression of collagenase (%)": 81
  },
  {
    "COMPOUND": "O=C(OCc1cc(=O)c(O)co1)c1ccc2c(c1)OCO2",
    "UNIT TEXT": "%",
    "Expression of collagenase (%)": 83
  },
  {
    "COMPOUND": "O=c1cc(/C=C/c2ccc3c(c2)OCO3)occ1O",
    "UNIT TEXT": "%",
    "Expression of collagenase (%)": 88
  },
  {
    "COMPOUND": "CC1=C(/C=C/C(C)=C/C=C/C(C)=C/CO)C(C)(C)CCC1 [Retinol, reference compound]",
    "UNIT TEXT": "%",
    "Expression of collagenase (%)": 82
  }
]

----------
Phototoxic index: recorded values
Test system: white guinea pigs
Assay: Phototoxicity test
Assay type: in vivo
Conditions: 1% (w/v) solution, UVA 15 J/cm^2, observed at 24, 48 and 72 hours, below 0.5 = no phototoxicity

[
  {
    "SMILES REPRESENTATION": "O=C(OCc1cc(=O)c(O)co1)c1ccc2c(c1)OCO2",
    "Phototoxic index": 0
  },
  {
    "SMILES REPRESENTATION": "O=C(Oc1cc(=O)c(O)co1)c1ccc2c(c1)OCCO2",
    "Phototoxic index": 0
  },
  {
    "SMILES REPRESENTATION": "O=c1cc(/C=C/c2ccc3c(c2)OCCO3)occ1O",
    "Phototoxic index": 0
  },
  {
    "SMILES REPRESENTATION": "O=C(/C=C/c1ccc2c(c1)OCCO2)COc1cc(=O)c(O)co1",
    "Phototoxic index": 0
  },
  {
    "SMILES REPRESENTATION": "O=c1cc(/C=C/c2ccc3c(c2)OCO3)occ1O",
    "Phototoxic index": 0
  }
]

----------
System: rabbits
Test: Primary skin irritation test on animals (Draize P.I.I.)
Format: in vivo
Details: 1% in 1,3-butylene glycol:ethanol=7:3, 0.5 ml, observed 24 and 72 hours later

[
  {
    "COMPOUND": "CC1=C(/C=C/C(C)=C/C=C/C(C)=C/C(=O)O)C(C)(C)CCC1 [Retinoic acid, reference compound]",
    "P. I. I. (Primary Irritation Index)": 1.830
  },
  {
    "COMPOUND": "O=C(Oc1cc(=O)c(O)co1)c1ccc2c(c1)OCCO2 [Compound of Ex. 2]",
    "P. I. I. (Primary Irritation Index)": 0.345
  },
  {
    "COMPOUND": "O=C(OCc1cc(=O)c(O)co1)c1ccc2c(c1)OCO2 [Compound of Ex. 1]",
    "P. I. I. (Primary Irritation Index)": 0.375
  },
  {
    "COMPOUND": "O=C(/C=C/c1ccc2c(c1)OCCO2)COc1cc(=O)c(O)co1 [Compound of Ex. 4]",
    "P. I. I. (Primary Irritation Index)": 0.350
  },
  {
    "COMPOUND": "O=c1cc(/C=C/c2ccc3c(c2)OCO3)occ1O [Compound of Ex. 5]",
    "P. I. I. (Primary Irritation Index)": 0.375
  },
  {
    "COMPOUND": "O=c1cc(/C=C/c2ccc3c(c2)OCCO3)occ1O [Compound of Ex. 6]",
    "P. I. I. (Primary Irritation Index)": 0.315
  }
]

----------
Tested on: healthy females and males
Experiment: Human patch test
Assay type: in vivo
Settings: 1% in patch base, n = 30, 48 hours later, grade 1
PROPERTY NAME: Number of the subjected showing response, 48 hours later, ± (Mild erythema)

[
  {
    "SMILES REPRESENTATION": "O=C(Oc1cc(=O)c(O)co1)c1ccc2c(c1)OCCO2",
    "SYSTEM NAME": "healthy females and males",
    "OBSERVED RESULT": 1
  },
  {
    "SMILES REPRESENTATION": "O=c1cc(/C=C/c2ccc3c(c2)OCO3)occ1O",
    "SYSTEM NAME": "healthy females and males",
    "OBSERVED RESULT": 0
  },
  {
    "SMILES REPRESENTATION": "O=C(OCc1cc(=O)c(O)co1)c1ccc2c(c1)OCO2",
    "SYSTEM NAME": "healthy females and males",
    "OBSERVED RESULT": 0
  },
  {
    "SMILES REPRESENTATION": "O=c1cc(/C=C/c2ccc3c(c2)OCCO3)occ1O",
    "SYSTEM NAME": "healthy females and males",
    "OBSERVED RESULT": 0
  }
]
